Tested on: CCRF-CEM
Assay: Cytotoxic concentration was measured in CEM wild-type/thymidine-kinase-deficient CEM Cells
Type: functional
Settings: Homo sapiens
readout type: CC50

CCc1c(Cc2cc(C)cc(C)c2)n(COC/C=C/c2ccc(O[P@](=O)(OCCSC(=O)C(C)(C)C)OC[C@@H]3C=C[C@H](n4cc(C)c(=O)[nH]c4=O)O3)cc2)c(=O)[nH]c1=O :: 32 µM

// each molecule listed below needs its CC50
1. CCOCn1c(Cc2ccccc2)c(C(C)C)c(=O)n(C(=O)c2ccc(OP(=O)(OCCSC(=O)C(C)(C)C)OCC3C=CC(n4cc(C)c(=O)[nH]c4=O)O3)cc2)c1=O (stereo unspecified)
2. CCOCn1c(Cc2ccccc2)c(C(C)C)c(=O)[nH]c1=O
3. Cc1cn([C@H]2C=C[C@@H](CO)O2)c(=O)[nH]c1=O

(A)
1: 32 µM; 2: > 100 µM; 3: > 100 µM

// each molecule listed below needs its CC50
1. CCc1c(Cc2cc(C)cc(C)c2)n(COCc2ccc(O[P@](=O)(OCCSC(=O)C(C)(C)C)OC[C@@H]3C=C[C@H](n4cc(C)c(=O)[nH]c4=O)O3)cc2)c(=O)[nH]c1=O
2. CCc1c(Cc2cc(C)cc(C)c2)n(COC/C=C/c2ccc(O)cc2)c(=O)[nH]c1=O

(A)
["32 µM", "32 µM"]
